Recorded values, source patent US20210403601A1.

# TARGET OR SYSTEM: T1, Taq DNA polymerase (Thermus aquaticus, UniProt P19821 1-832)
# T1 construct: also called Taq enzyme; Taq DNA enzyme
# T1 sequence (P19821 whole entry): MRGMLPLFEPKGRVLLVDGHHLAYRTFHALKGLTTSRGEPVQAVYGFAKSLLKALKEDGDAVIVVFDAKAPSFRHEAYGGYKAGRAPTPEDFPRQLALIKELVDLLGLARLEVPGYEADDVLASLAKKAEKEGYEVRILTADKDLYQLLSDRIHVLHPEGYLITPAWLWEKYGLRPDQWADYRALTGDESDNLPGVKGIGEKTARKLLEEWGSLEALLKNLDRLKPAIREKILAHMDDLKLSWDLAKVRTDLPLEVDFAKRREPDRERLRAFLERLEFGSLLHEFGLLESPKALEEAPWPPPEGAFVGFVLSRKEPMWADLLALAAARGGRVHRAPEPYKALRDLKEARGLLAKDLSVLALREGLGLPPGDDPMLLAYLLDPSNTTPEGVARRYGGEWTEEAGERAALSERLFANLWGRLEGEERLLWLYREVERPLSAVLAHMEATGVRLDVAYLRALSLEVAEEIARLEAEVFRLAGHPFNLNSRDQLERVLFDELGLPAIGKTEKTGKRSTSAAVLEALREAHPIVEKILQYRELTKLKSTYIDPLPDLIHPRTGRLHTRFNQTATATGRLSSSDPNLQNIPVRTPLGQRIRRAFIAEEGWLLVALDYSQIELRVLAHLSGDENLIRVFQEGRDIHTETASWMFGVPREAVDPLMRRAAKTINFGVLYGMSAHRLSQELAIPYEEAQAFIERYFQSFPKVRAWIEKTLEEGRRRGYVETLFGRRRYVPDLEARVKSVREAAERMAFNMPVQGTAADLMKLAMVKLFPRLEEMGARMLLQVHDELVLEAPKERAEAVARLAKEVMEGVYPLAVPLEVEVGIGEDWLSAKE
# ASSAY NOTES: AMC sensor, antibody immobilised
ASSAY ENDPOINT: kon (M⁻¹ s⁻¹)
All answers are understood in M⁻¹ s⁻¹, so give the number only.

[[record]]
binder = "Mutation 1-46 (antibody, V domains shown, Mutation 1 background; CDRs built) VH: QVQLQQPGAELVKPGASVRLSCQTSVDTFSTYYIYWVKQRPGEGLEWIGGLNPTSGGPVFNEKFKSKATLTVDTSSSTAYMQLSSLTSVDSAVYYCTRSIVRRGYYFDYWGQGTALTVSS VL: DIQMTQTTSSLSASLGDRVTISCRASQDIQNYINWYQQKPDGTIKLLIYYTSRLNSGIPSRFSGSGSGTDYSLTIANLEQEDIATYFCQQDDTIPITFGAGTKVELKR"
unit_name = "M⁻¹ s⁻¹"
measured_value = 43800

[[record]]
binder = "Mutation 1-22 (antibody, V domains shown, Mutation 1 background; CDRs built) VH: QVQLQQPGAELVKPGASVRLSCQTSVNTFTTYYIYWVKQRPGEGLEWIGGINPTSGGPVFNEKFKSKATLTVDTSSSTAYMQLSSLTSVDSAVYYCTRSVVRRGYYFDYWGQGTALTVSS VL: DIQMTQTTSSLSASLGDRVTISCRASQDIQNYINWYQQKPDGTIKLLIYYTSRLHSGVPSRFSGSGSGTDYSLTIANLEQEDIATYFCQQDDTVPITFGAGTKVELKR"
unit_name = "M⁻¹ s⁻¹"
measured_value = 97200

[[record]]
binder = "Mutation 1-58 (antibody, V domains shown, Mutation 1 background; CDRs built) VH: QVQLQQPGAELVKPGASVRLSCQTSVETFTTYYIYWVKQRPGEGLEWIGGINPTSNPVFNEKFKSKATLTVDTSSSTAYMQLSSLTSVDSAVYYCTRSVVRRGYYFDYWGQGTALTVSS VL: DIQMTQTTSSLSASLGDRVTISCRASQDIQNYINWYQQKPDGTIKLLIYYTSRLQSGIPSRFSGSGSGTDYSLTIANLEQEDIATYFCQQDDTVPITFGAGTKVELKR"
unit_name = "M⁻¹ s⁻¹"
measured_value = 75000

[[record]]
binder = "Mutation 1-23 (antibody, V domains shown, Mutation 1 background; CDRs built) VH: QVQLQQPGAELVKPGASVRLSCQTSVDTFSTYYIYWVKQRPGEGLEWIGGLNPTSGGPVFNEKFKSKATLTVDTSSSTAYMQLSSLTSVDSAVYYCTRSVIRRGYYFDYWGQGTALTVSS VL: DIQMTQTTSSLSASLGDRVTISCRASQDINNYINWYQQKPDGTIKLLIYYTSRLNSGVPSRFSGSGSGTDYSLTIANLEQEDIATYFCQQDDTVPLTFGAGTKVELKR"
unit_name = "M⁻¹ s⁻¹"
measured_value = 70200


INPUT: So what does the record say about kon for Mutation 1-52 (antibody, V domains shown, Mutation 1 background; CDRs built) VH: QVQLQQPGAELVKPGASVRLSCQTSVETFTTYYIYWVKQRPGEGLEWIGGLNPTSGGPVFNEKFKSKATLTVDTSSSTAYMQLSSLTSVDSAVYYCTRSLVRRGYYFDYWGQGTALTVSS VL: DIQMTQTTSSLSASLGDRVTISCRASQDIQNYINWYQQKPDGTIKLLIYYTSRLHSGIPSRFSGSGSGTDYSLTIANLEQEDIATYFCQQDDTLPITFGAGTKVELKR ?
OUTPUT: 34000
